Recorded values, source patent US8232407B2.

- System: Aphis craccivoral
- assay.name: Insecticidal activities to aphids, immersion method
- Assay type: in vivo
- measurement.setup: in vivo
Field: Aphis craccivoral Mortality (%) 500 ppm. Provide a value for each of the compounds that follow.
Use % as the unit, but write only the number.

Give its Aphis craccivoral Mortality (%) 500 ppm value. Item: CCN(Cc1ccc(Cl)nc1)C(=NC)C(=Cc1ccsc1)[N+](=O)[O-]
100

Could you do the same for O=[N+]([O-])C(=Cc1oc(Cl)cc1Cl)C1=NCCN1Cc1cnc(Cl)s1 , please?
100

Could you do the same for O=[N+]([O-])C(=Cc1ccc(Cl)s1)C1=NCCN1Cc1ccc(Cl)nc1 , please?
100

Could you do the same for CCN(Cc1cnc(Cl)s1)C(=NC)C(=Cc1ccoc1)[N+](=O)[O-] , please?
68

Could you do the same for CN=C(C(=Cc1ccc[nH]1)[N+](=O)[O-])N(C)Cc1cnc(Cl)s1 , please?
32

Could you do the same for C[N+]1=C(C(=Cc2ccc(Br)o2)[N+](=O)[O-])N(Cc2cnc(Cl)s2)CC1.[Cl-] , please?
100

Could you do the same for O=[N+]([O-])C(=Cc1sc(Br)cc1Br)C1=NCCN1Cc1ccc(Cl)nc1 , please?
100

Could you do the same for C[N+]1=C(C(=Cc2cccs2)[N+](=O)[O-])N(Cc2cnc(Cl)s2)CC1.[Cl-] , please?
100

Could you do the same for O=[N+]([O-])C(=Cc1cc(Cl)c(Cl)o1)C1=NCCN1Cc1cnc(Cl)s1 , please?
100

Could you do the same for CN=C(C(=Cc1ccc(Br)o1)[N+](=O)[O-])N(C)Cc1ccc(Cl)nc1 [Compound 165] , please?
100

Could you do the same for O=[N+]([O-])C(=Cc1ccc([N+](=O)[O-])s1)C1=NCCCN1Cc1ccc(Cl)nc1 , please?
98

Could you do the same for CC(c1ccc(Cl)nc1)N1CCN=C1C(=Cc1ccc([N+](=O)[O-])o1)[N+](=O)[O-] (racemic) , please?
100

Could you do the same for CC[N+]1=C(C(=Cc2ccc(Br)o2)[N+](=O)[O-])N(Cc2ccc(Cl)nc2)CC1.[Cl-] , please?
100

Could you do the same for CC(c1ccc(Cl)nc1)N1CCN=C1C(=Cc1ccsc1)[N+](=O)[O-] (racemic) , please?
100

Could you do the same for O=[N+]([O-])C(=Cc1cc(Br)c(Br)s1)C1=NCCN1Cc1ccc(Cl)nc1 , please?
100

Could you do the same for CC[N+]1=C(C(=Cc2ccc(Cl)o2)[N+](=O)[O-])N(Cc2ccc(Cl)nc2)CC1.[Cl-] , please?
100

Could you do the same for C[N+]1=C(C(=Cc2cc(Cl)co2)[N+](=O)[O-])N(Cc2ccc(Cl)nc2)CC1.[Cl-] , please?
100

Could you do the same for CCN=C(C(=Cc1ccc(Cl)s1)[N+](=O)[O-])N(C)Cc1ccc(Cl)nc1 , please?
87

Could you do the same for O=[N+]([O-])C(=Cc1ccc(Br)o1)C1=NCCN1Cc1cnc(Cl)s1 , please?
100

Could you do the same for CCc1ccc(C(C)=C(C2=NCCN2Cc2ccc(Cl)nc2)[N+](=O)[O-])o1 , please?
93

Could you do the same for CN=C(C(=Cc1ccco1)[N+](=O)[O-])N(C)Cc1ccc(Cl)nc1 [Compound 232] , please?
96

Could you do the same for O=[N+]([O-])C(=Cc1ccc(Cl)o1)C1=NCCN1Cc1ccc(Cl)nc1 , please?
100

Could you do the same for O=[N+]([O-])C(=Cc1cc(Br)c(Br)o1)C1=NCCN1Cc1ccccc1 , please?
58

Could you do the same for O=[N+]([O-])C(=Cc1cc(Cl)co1)C1=NCCN1Cc1ccc(Cl)nc1 , please?
100

Could you do the same for C[N+]1=C(C(=Cc2ccc([N+](=O)[O-])o2)[N+](=O)[O-])N(Cc2ccc(Cl)nc2)CC1.[Cl-] , please?
100

Could you do the same for CN=C(C(=Cc1ccc(Cl)o1)[N+](=O)[O-])N(C)Cc1cnc(Cl)s1 , please?
88

Could you do the same for CCN(Cc1cnc(Cl)s1)C(=NC)C(=Cc1ccc(Cl)s1)[N+](=O)[O-] , please?
75

Could you do the same for Cc1csc(C=C(C2=NCCN2Cc2ccc(Cl)nc2)[N+](=O)[O-])c1 , please?
100

Could you do the same for O=[N+]([O-])C(=Cc1ccc(Br)o1)C1=NCCN1CC1CCOC1 (stereo not drawn) , please?
65

Could you do the same for O=[N+]([O-])C(=Cc1cnco1)C1=NCCN1Cc1ccc(Cl)nc1 , please?
100

Could you do the same for CN=C(C(=Cc1ccsc1)[N+](=O)[O-])N(C)Cc1ccc(Cl)nc1 [Compound 237] , please?
87

Could you do the same for CC(c1ccc(Cl)nc1)N1CCN=C1C(=Cc1cccs1)[N+](=O)[O-] (racemic) , please?
100

Could you do the same for O=[N+]([O-])C(=Cc1oc(Cl)cc1Cl)C1=NCCN1Cc1ccccc1 , please?
91

---

- System: Plutella xylostella
- assay.name: Insecticidal activities to diamondback moth, feeding dipped leaves
- Assay type: in vivo
- measurement.setup: in vivo
value.kind: Plutella xylostella Mortality (%) 500 ppm
Use % as the unit, but write only the number.

Give its Plutella xylostella Mortality (%) 500 ppm value. Item: Cn1cccc1C=C(C1=[N+](C)CCN1Cc1ccc(Cl)nc1)[N+](=O)[O-].[Cl-] [Compound 275]
100

Could you do the same for O=[N+]([O-])C(=Cc1ccsc1)C1=NCCN1Cc1cnc(Cl)s1 [Compound 84] , please?
100

Could you do the same for O=[N+]([O-])C(=Cc1cc(Cl)co1)C1=NCCN1Cc1ccccc1 [Compound 106] , please?
75

Could you do the same for CC(=C(C1=NCCN1C(C)c1ccc(Cl)nc1)[N+](=O)[O-])c1ccco1 (racemic) [Compound 133] , please?
68

Could you do the same for O=[N+]([O-])C(=Cc1ccc(Cl)s1)C1=NCCN1Cc1ccc(Cl)nc1 [Compound 19] , please?
100

Could you do the same for O=[N+]([O-])C(=Cc1ccc(F)nc1)C1=NCCN1Cc1ccc(Cl)nc1 [Compound 41] , please?
100

Could you do the same for C[N+]1=C(C(=Cc2ccc([N+](=O)[O-])s2)[N+](=O)[O-])N(Cc2cnc(Cl)s2)CC1.[Cl-] [Compound 282] , please?
100

Could you do the same for CC(=C(C1=NCCN1Cc1ccc(Cl)nc1)[N+](=O)[O-])c1ccc([N+](=O)[O-])s1 [Compound 117] , please?
86

Could you do the same for O=[N+]([O-])C(=Cc1cc(Cl)co1)C1=NCCN1Cc1cnc(Cl)s1 [Compound 73] , please?
100

Could you do the same for O=[N+]([O-])C(=Cc1ccc(Cl)nc1)C1=NCCN1Cc1ccc(Cl)nc1 [Compound 40] , please?
56

Could you do the same for C[N+]1=C(C(=Cc2ccc(Cl)s2)[N+](=O)[O-])N(Cc2ccc(Cl)nc2)CC1.[Cl-] [Compound 262] , please?
100

Could you do the same for C[N+]1=C(C(=Cc2cc(Cl)c(Cl)s2)[N+](=O)[O-])N(Cc2ccc(Cl)nc2)CC1.[Cl-] [Compound 266] , please?
100

Could you do the same for O=[N+]([O-])C(=Cc1ccncc1)C1=NCCN1Cc1ccc(Cl)nc1 [Compound 39] , please?
21

Could you do the same for O=[N+]([O-])C(=Cc1ccc(CO)s1)C1=NCCN1Cc1ccc(Cl)nc1 [Compound 30] , please?
100

Could you do the same for O=[N+]([O-])C(=Cc1oc(Cl)cc1Cl)C1=NCCN1Cc1ccccc1 [Compound 109] , please?
56

Could you do the same for O=[N+]([O-])C(=Cc1oc(Cl)cc1Cl)C1=NCCN1Cc1cnc(Cl)s1 [Compound 76] , please?
100

Could you do the same for O=[N+]([O-])C(=Cc1cc(Cl)c(Cl)o1)C1=NCCN1Cc1cnc(Cl)s1 [Compound 75] , please?
100

---

- System: Nilaparvata lugens
- assay.name: Insecticidal activities to plant hopper, spraying method
- Assay type: in vivo
- measurement.setup: in vivo
value.kind: Nilaparvata lugens Mortality (%) 500 ppm
Use % as the unit, but write only the number.

Give its Nilaparvata lugens Mortality (%) 500 ppm value. Item: CN=C(NCc1ccc(Cl)nc1)C(=Cc1ccc([N+](=O)[O-])s1)[N+](=O)[O-]
43

Could you do the same for O=[N+]([O-])C(=Cc1ccoc1)C1=NCCN1CC1CCOC1 (centres unmarked) , please?
100

Could you do the same for CN=C(C(=C(C)c1ccc([N+](=O)[O-])s1)[N+](=O)[O-])N(C)C(C)c1ccc(Cl)nc1 (centres unmarked) , please?
100

Could you do the same for CN=C(C(=Cc1ccc(Cl)o1)[N+](=O)[O-])N(C)Cc1ccc(Cl)nc1 [Compound 234] , please?
44

Could you do the same for Cc1ccc(C=C(C2=NCCN2Cc2ccc(Cl)nc2)[N+](=O)[O-])s1 , please?
100

Could you do the same for CN=C(C(=C(C)c1ccc(Cl)s1)[N+](=O)[O-])N(C)C(C)c1ccc(Cl)nc1 (centres unmarked) , please?
100

Could you do the same for CCN=C(C(=Cc1ccc(Cl)s1)[N+](=O)[O-])N(C)Cc1ccc(Cl)nc1 , please?
100

Could you do the same for O=[N+]([O-])C(=Cc1oc(Cl)cc1Cl)C1=NCCN1Cc1cnc(Cl)s1 , please?
100

Could you do the same for CCc1ccc(C=C(C2=[N+](C)CCN2Cc2ccc(Cl)nc2)[N+](=O)[O-])s1.[Cl-] , please?
100

Could you do the same for C[N+]1=C(C(=Cc2ccsc2)[N+](=O)[O-])N(Cc2cnc(Cl)s2)CC1.[Cl-] , please?
100

Could you do the same for C[N+]1=C(C(=Cc2cc(Cl)c(Cl)o2)[N+](=O)[O-])N(Cc2ccc(Cl)nc2)CC1.[Cl-] , please?
100

Could you do the same for O=[N+]([O-])C(=Cc1cc(Br)co1)C1=NCCN1Cc1ccccc1 , please?
92

Could you do the same for O=[N+]([O-])C(=Cc1oc(Cl)cc1Cl)C1=NCCN1Cc1ccc(Cl)nc1 , please?
100

Could you do the same for O=[N+]([O-])C(=Cc1cc(Br)c(Br)o1)C1=NCCN1Cc1cnc(Cl)s1 , please?
100

Could you do the same for C[N+]1=C(C(=Cc2ccoc2)[N+](=O)[O-])N(Cc2ccc(Cl)nc2)CC1.[Cl-] , please?
100

Could you do the same for Cc1csc(C=C(C2=[N+](C)CCN2Cc2ccc(Cl)nc2)[N+](=O)[O-])c1.[Cl-] , please?
100

Could you do the same for O=[N+]([O-])C(=Cc1cc(Cl)cs1)C1=NCCN1Cc1ccc(Cl)nc1 , please?
100
